Source of measurements: paper PMC6858373

Biological target: full-length P. pyralis luciferase (Photinus pyralis, UniProt P08659, K549A/L550V/N119G/N50D/S548I)
Sequence (P08659 whole entry N50D/N119G/S548I/K549A/L550V, looked up): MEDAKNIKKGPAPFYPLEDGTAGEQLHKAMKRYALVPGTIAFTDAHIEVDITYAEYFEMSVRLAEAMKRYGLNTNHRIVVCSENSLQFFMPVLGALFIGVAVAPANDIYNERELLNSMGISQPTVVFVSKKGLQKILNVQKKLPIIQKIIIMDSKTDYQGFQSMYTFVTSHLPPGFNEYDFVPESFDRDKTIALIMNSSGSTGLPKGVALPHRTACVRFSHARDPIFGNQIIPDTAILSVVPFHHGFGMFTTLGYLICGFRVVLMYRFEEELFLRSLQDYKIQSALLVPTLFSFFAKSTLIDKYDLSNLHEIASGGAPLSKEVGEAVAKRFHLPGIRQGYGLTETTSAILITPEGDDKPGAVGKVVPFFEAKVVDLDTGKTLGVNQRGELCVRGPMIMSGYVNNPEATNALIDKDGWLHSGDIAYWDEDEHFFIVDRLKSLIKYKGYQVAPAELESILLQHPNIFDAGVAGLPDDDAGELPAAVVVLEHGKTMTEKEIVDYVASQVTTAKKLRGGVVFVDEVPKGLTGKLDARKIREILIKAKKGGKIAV
Type: cell-based
Conditions: CC_NCI screening; full-length luciferase counter-screen luminescence; normalized to on-plate 0.3% DMSO controls
Luciferase Assay % Lum reference
A number alone suffices; assume %.

# annotated cases, reported Luciferase Assay % Lum shown
CN(C)Cc1c(C(=O)NCCOc2ccc(C(=O)NO)cc2)oc2ccccc12 = 91.15
COc1cc2nccc(Oc3ccc(NC(=O)C4(C(=O)Nc5ccc(F)cc5)CC4)cc3)c2cc1OC [Cabozantinib] = 67.75
CCc1c2c(nc3ccc(OC(=O)N4CCC(N5CCCCC5)CC4)cc13)-c1cc3c(c(=O)n1C2)COC(=O)[C@]3(O)CC.Cl [Irinotecan hydrochloride] = 96.04

Please turn your attention to the following entry.
Problem: Dear colleague, I am looking for the recorded Luciferase Assay % Lum of the following compound: CNC(=O)c1ccccc1Sc1ccc2c(/C=C/c3ccccn3)n[nH]c2c1 [AXITINIB]
Solution: 40.56

* * *

Target: full-length P. pyralis luciferase (Photinus pyralis, UniProt P08659, K549A/L550V/N119G/N50D/S548I)
Assay type: cell-based
Counter-ions that a name gives are not always drawn.
// classify(record): look up Luciferase Assay Z-score (full-length luciferase counter-screen) in ranges band 1 = under -1, band 2 = from -1 up to -0.05, band 3 = -0.05 and over

The following molecules have reported results that may help.
CS(=O)(=O)CCNCc1ccc(-c2ccc3ncnc(Nc4ccc(OCc5cccc(F)c5)c(Cl)c4)c3c2)o1 = band 1
CNNCc1ccc(C(=O)NC(C)C)cc1 [Procarbazine hydrochloride] = band 2
CC/C(=C(\c1ccccc1)c1ccc(OCCN(C)C)cc1)c1ccccc1 [Tamoxifen citrate] = band 1
CN(C)/N=N/c1[nH]cnc1C(N)=O = band 2
CN(C)c1nc(N(C)C)nc(N(C)C)n1 = band 2
C1CN1c1nc(N2CC2)nc(N2CC2)n1 = band 3

Problem: State the class of the molecule shown: C[C@@H](CN1CC(=O)NC(=O)C1)N1CC(=O)NC(=O)C1
Solution: band 3

* * *

Test system: Clone V cells
Settings: human, 16 h, 30 µM
PROPERTY: Toxicity Assay % Fluor (%)
A number alone suffices; assume %.

# annotated cases, reported Toxicity Assay % Fluor shown
OC[C@H]1O[C@@H](n2cnc3c2NC=NC[C@H]3O)C[C@@H]1O = 86.56
COc1cc2nccc(Oc3ccc(NC(=O)C4(C(=O)Nc5ccc(F)cc5)CC4)cc3)c2cc1OC [Cabozantinib] = 93.87
CCN(CCO)CCCOc1ccc2c(Nc3cc(CC(=O)Nc4cccc(F)c4)[nH]n3)ncnc2c1 = 93.28

Problem: Dear colleague, I am looking for the recorded Toxicity Assay % Fluor of the following compound: c1cc(CN2CCCNCCNCCCNCC2)ccc1CN1CCCNCCNCCCNCC1
Solution: 92.88

* * *

System: Clone V cells
Assay: CellTiter Blue (CTB) cell viability counter-screen
Settings: CC_NCI screening; CTB cell viability; normalized to on-plate 0.3% DMSO controls
// classify(record): look up Toxicity Assay Z-score in ranges A (below -2), B (-2 to below -0.4), C (-0.4 or more)

The following compounds have reported results that may help.
COc1cc2c(Nc3ccc(Br)cc3F)ncnc2cc1OCC1CCN(C)CC1 = C
CCCS(=O)(=O)Nc1ccc(F)c(C(=O)c2c[nH]c3ncc(-c4ccc(Cl)cc4)cc23)c1F [PLX4032] = A
CN(N=O)C(=O)N[C@@H](C=O)[C@@H](O)[C@H](O)[C@H](O)CO = B
O=C(CCCCCCC(=O)Nc1ccccc1)NO = C
CCCCCCCCCCCCCCCCCCOP(=O)([O-])OC1CC[N+](C)(C)CC1 = A
C=C1C[C@@H]2[C@H](CC[C@]3(C)C(=O)CC[C@@H]23)[C@@]2(C)C=CC(=O)C=C12 = B

Problem: State the class of the compound shown: CN(C)C/C=C/C(=O)Nc1cc2c(Nc3ccc(F)c(Cl)c3)ncnc2cc1O[C@H]1CCOC1 [BIBW2992]
Solution: C

Problem: State the class of the compound shown: Cn1cnc2c(F)c(Nc3ccc(Br)cc3Cl)c(C(=O)NOCCO)cc21
Solution: C

Problem: State the class of the compound shown: CN1CCN(CCOc2cc(OC3CCOCC3)c3c(Nc4c(Cl)ccc5c4OCO5)ncnc3c2)CC1 [SARACATINIB]
Solution: C

Problem: State the class of the compound shown: CN1CCN(CCOc2cc(OC3CCOCC3)c3c(Nc4c(Cl)ccc5c4OCO5)ncnc3c2)CC1 [AZD 0530]
Solution: B

Problem: State the class of the compound shown: CN(C)C/C=C/C(=O)Nc1cc2c(Nc3ccc(F)c(Cl)c3)ncnc2cc1O[C@H]1CCOC1 [Afatinib]
Solution: A

Problem: State the class of the compound shown: O=C(c1cc(Cc2n[nH]c(=O)c3ccccc23)ccc1F)N1CCN(C(=O)C2CC2)CC1
Solution: B

Problem: State the class of the compound shown: Nc1nc2[nH]cc(CCc3ccc(C(=O)N[C@@H](CCC(=O)O)C(=O)O)cc3)c2c(=O)[nH]1
Solution: B

Problem: State the class of the compound shown: Cc1ccc(NC(=O)c2ccc(CN3CCN(C)CC3)cc2)cc1Nc1nc(-c2cccnc2)cs1
Solution: B

Problem: State the class of the compound shown: COc1cc(Nc2c(C#N)cnc3cc(OCCCN4CCN(C)CC4)c(OC)cc23)c(Cl)cc1Cl
Solution: B

Problem: State the class of the compound shown: CCCS(=O)(=O)Nc1ccc(F)c(C(=O)c2c[nH]c3ncc(-c4ccc(Cl)cc4)cc23)c1F [Vemurafenib]
Solution: B
